In this section, each of the molecules is paired with its reported viability, T/C.
test system: 624824-186-R-J3-PDC multicell spheroids, viability; test: Anticancer human tumor 624824-186-R-J3-PDC patient-derived colon adenocarcinoma cell line growth inhibition [PI3K]; conditions: second compound 0.316 µM; first compound 0.1 µM; hits give low values;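 note: luminescent signal used as a stand-in for spheroid viability; spheroids exposed to agents for seven days before luminescence read; percent viability relative to DMSO vehicle control wells taken as 100%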
# unit: % | format: bare number

-- ask What value of measured viability, T/C is listed for Cn1nccc1Nc1nccc(-c2ccn(C(CO)c3ccc(Cl)c(F)c3)c(=O)c2)n1 (stereo not drawn) + Cc1nc(NC(=O)N2CCCC2C(N)=O)sc1-c1ccnc(C(C)(C)C(F)(F)F)c1 ?
-- reply 110

-- ask What do we get for CC(C)NCC(C(=O)N1CCN(c2ncnc3c2C(C)CC3O)CC1)c1ccc(Cl)cc1 (stereo not drawn) + CC(Nc1ccc2c(c1)OCCn1cc(N3C(=O)OCC3C(F)F)nc1-2)C(N)=O ?
-- reply 91.8

-- ask Try this molecule next: CNC(=O)c1ccc(N2C(=S)N(c3ccc(C#N)c(C(F)(F)F)c3)C(=O)C2(C)C)cc1F + Cc1nc(NC(=O)N2CCCC2C(N)=O)sc1-c1ccnc(C(C)(C)C(F)(F)F)c1
-- reply 101
